Numbers sourced from patent US20090221642A1.

In this section we review reported pEC50 values for a set of compounds.
- target.system: cloned human M2 receptor (human Muscarinic receptor subtype 2) (Homo sapiens, UniProt P08172)
- Construct: purchased Perkin-Elmer RBHM2M; host or cells: Chinese hamster ovary cells (CHO) membranes
- Sequence (P08172 1-466): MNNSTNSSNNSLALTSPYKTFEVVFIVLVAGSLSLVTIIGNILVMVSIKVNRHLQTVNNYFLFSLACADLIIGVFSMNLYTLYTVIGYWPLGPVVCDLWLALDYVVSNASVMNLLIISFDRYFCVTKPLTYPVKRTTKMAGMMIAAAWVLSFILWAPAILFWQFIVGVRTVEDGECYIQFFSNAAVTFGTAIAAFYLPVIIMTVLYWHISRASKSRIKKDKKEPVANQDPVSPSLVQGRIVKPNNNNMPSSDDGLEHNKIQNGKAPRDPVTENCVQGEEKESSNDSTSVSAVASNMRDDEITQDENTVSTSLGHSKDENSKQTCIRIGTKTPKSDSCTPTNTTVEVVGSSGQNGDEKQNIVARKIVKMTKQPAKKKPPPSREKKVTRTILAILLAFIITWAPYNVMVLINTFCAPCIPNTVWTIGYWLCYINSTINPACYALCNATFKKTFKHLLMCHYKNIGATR
- test.details: hM2 receptor GTPγS binding
- Type: biochemical
- settings: CHO cell membranes expressing hM2; [35S]GTPγS binding; read-out: hM2 EC50
Value format note: pEC50 is -log10 of concentration (mol/L); just state the number.

Before answering, review these 5 worked examples.
QUERY: Give its pEC50 value. Item: CCOC(=O)N1CCC(C)(N2CCC(n3c(=O)[nH]c4cc(F)ccc43)CC2)C1 (single isomer, unassigned) [Example 7]
RESULT: 5.35

QUERY: Try this compound too: COC(=O)N1CCC(C)(N2CCC(n3c(=O)[nH]c4ccccc43)CC2)C1 (racemic)
RESULT: 6.06

QUERY: Try this compound too: Cc1ccc2[nH]c(=O)n(C3CCN(C4(C)CCN(C(=O)OCCF)C4)CC3)c2c1 (single isomer, unassigned) [Example 26]
RESULT: 6.84

QUERY: Try this compound too: COC(=O)N1CCC(C)(N2CCC(N3C(=O)Cc4ccc(F)cc43)CC2)C1 (single isomer, unassigned)
RESULT: 5.46

QUERY: Try this compound too: CCOC(=O)N1CCC(C)(N2CCC(N3C(=O)Cc4ccccc43)CC2)C1 (single isomer, unassigned) [Example 73]
RESULT: 5.21

Further cases:
QUERY: Give its pEC50 value. Item: CCNC(=O)N1CCC(C)(N2CCC(n3c(=O)[nH]c4ccccc43)CC2)C1 (stereo not drawn)
RESULT: 5.29

QUERY: Try this compound too: CC1(N2CCC(n3c(=O)[nH]c4ccccc43)CC2)CCN(C(=O)OCCF)C1 (single isomer, unassigned) [Example 31]
RESULT: 6.00

QUERY: Try this compound too: CCOC(=O)N1CCC(C)(N2CCC(N3C(=O)Cc4ccc(C)cc43)CC2)C1 (single isomer, unassigned) [Example 69]
RESULT: 5.73

QUERY: Try this compound too: CC#CCOC(=O)N1CCC(C)(N2CCC(n3c(=O)[nH]c4cc(F)ccc43)CC2)C1 (single isomer, unassigned)
RESULT: 6.90

QUERY: Try this compound too: Cc1ccc2c(c1)[nH]c(=O)n2C1CCN(C2(C)CCN(C(=O)OCCF)C2)CC1 (single isomer, unassigned)
RESULT: 6.21

QUERY: Try this compound too: CC#CCOC(=O)N1CCC(C)(N2CCC(n3c(=O)[nH]c4ccc(C)cc43)CC2)C1 (single isomer, unassigned)
RESULT: 7.21

QUERY: Try this compound too: CCOC(=O)N1CCC(C)(N2CCC(n3c(=O)[nH]c4cc(F)c(F)cc43)CC2)C1 (single isomer, unassigned) [Example 57]
RESULT: 6.37
